Target: TIKI2N (Homo sapiens, UniProt A6NFA1)
Construct: which is the extracellular domain of TIKI2 fused with a carboxyl FLAG tag and a 6×HIS tag; made in house; host or cells: HEK293T
Sequence (A6NFA1 20-486 limits assumed): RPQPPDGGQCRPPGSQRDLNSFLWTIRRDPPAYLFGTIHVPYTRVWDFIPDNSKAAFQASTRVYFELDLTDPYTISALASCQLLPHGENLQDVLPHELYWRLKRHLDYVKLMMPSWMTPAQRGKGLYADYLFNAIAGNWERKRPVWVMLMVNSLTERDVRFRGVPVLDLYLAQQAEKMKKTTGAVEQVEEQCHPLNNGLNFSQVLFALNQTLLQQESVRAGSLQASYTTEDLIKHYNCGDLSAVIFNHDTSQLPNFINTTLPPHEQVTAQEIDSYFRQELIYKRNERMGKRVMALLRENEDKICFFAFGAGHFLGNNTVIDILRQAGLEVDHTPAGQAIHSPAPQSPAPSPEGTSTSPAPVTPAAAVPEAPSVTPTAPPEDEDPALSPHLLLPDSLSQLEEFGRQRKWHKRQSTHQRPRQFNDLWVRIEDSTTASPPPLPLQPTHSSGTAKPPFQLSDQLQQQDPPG
Assay: In vitro treatment of HA-Wnt3a with purified TIKI2N (cleavage, Western blotting)
Assay type: biochemical
Conditions: 50 μM of each divalent metal ion, 2 hrs, in vitro
measured-parameter: Effects of divalent metals on TIKI2N activity

[Mn+2] [Mn^2+] : enhanced
[Co+2] [Co^2+] : enhanced
